Numbers sourced from PubChem BioAssay.

# Assay Method Text: DUSP6 inhibitors restoring Erk phosphorylation by chemical complementation, primary imaging in DUSP6-transfected HeLa (AID 609)
# Condition Notes: HeLa MKP-3 transfected, phospho-Erk imaging KS statistic; measured here: cell density z-score; at 10 µM; cells stimulated with TPA for 15 min
In this section we review reported z-score values for a set of molecules.
Quantity: z-score

# Molecule, Value Measured
rows = [
    ("O=C(OCC#CCSc1nnc(-c2ccccc2)o1)c1cccs1", -0.348),
    ("COCCOC(=O)C1=C(C)OC(N)=C(C#N)C1c1ccco1 (configuration not stated)", -0.623),
    ("C/C(=N\\O)c1ccc2[nH]ccc2c1", 0.0779),
    ("CCCN(CCC)C(=O)C(CCC(=O)O)NC(=O)c1ccccc1 (configuration not stated)", -1.75),
    ("COC(=O)c1cc(Br)c(=O)n(Cc2ccc3c(c2)OCO3)c1", 0.138),
    ("COc1cccc(-c2nc(N3CCN(Cc4ccccc4)CC3)c3ccccc3n2)c1O", -0.018),
    ("c1coc(-c2nnc3sc(Cc4cccs4)nn23)c1", 0.488),
    ("CCOc1ccc(Br)cc1CC(=O)O", -0.00622),
    ("CC(=O)Nn1cnc2c(c1=O)C1(CCCC1)Cc1ccccc1-2", -0.985),
    ("N#C/C(=C\\c1ccc(O)c(O)c1)C(=O)NCCCc1ccccc1", 1.89),
    ("Cc1cc(Cn2ccnc2)c(C)cc1Cn1ccnc1", -0.00236),
    ("Oc1ccccc1-c1nc(NCc2ccco2)c2ccccc2n1", -1.1),
]

---

Measured fluorescence slope of individual entries
# Target Entity: Voltage-gated potassium channel subunit beta-2 (Rattus norvegicus)
# Assay Method Text: KvBeta enzyme negative modulators, primary screen, biochemical, NADPH fluorescence (AID 622);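 further: slope of raw intensity against log time taken from 70 to 1610 s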
# Condition Notes: recombinant KvBeta, 4-cyanobenzaldehyde reduction, at 10 µM, stronger effect = higher value
Active and inactive are the calls of the source.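 How the source made its calls: active means fluorescence slope higher than the sample average by over 3 SD (cut at about -0.22 in these data, passing the limit was not always enough); inactive means the rest.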

# Molecule, fluorescence slope
measured = [
    ("C=C(Br)Cn1c(CCCC)nc2ccccc21", "-0.492 (inactive)"),
    ("CCc1cc(=O)oc2c(CN3CCN(C)CC3)c(O)c(Cl)cc12", "-0.266 (inactive)"),
    ("CCOC(=O)c1c(NC(=O)CCN2CCOCC2)sc2c1CC(C)(C)OC2", "-0.422 (inactive)"),
    ("COc1ccccc1-c1nn2c(-c3ccco3)nnc2s1", "-0.42 (inactive)"),
    ("CCOC(=O)CSC1=C(C#N)C(=O)NC(c2ccc(OC)c(OC)c2)S1 (stereo unspecified)", "-0.509 (inactive)"),
    ("CCOC(=O)c1[nH]c2cc3c(cc2c1NC(=O)CN1CCC(C)CC1)OCO3", "-0.27 (inactive)"),
]

---

# Assay Method Text: DUSP6 inhibitors restoring Erk phosphorylation by chemical complementation, primary imaging in DUSP6-transfected HeLa (AID 609)
# Condition Notes: HeLa MKP-3 transfected, phospho-Erk imaging KS statistic; measured here: nuclear c-Myc green intensity z-score; at 10 µM; cells stimulated with TPA for 15 min
Kind request: treat 0.6 as inclusive, so z-score at 0.6 or higher is MET, anything lower is NOT MET.

# Compound, Cat
rows = [
    ("CCOC(=O)c1c(C(F)(F)C(F)(F)C(F)(F)C(F)(F)F)n[nH]c1C", "NOT MET"),
    ("CN1CCCN=C1COC(=O)C(O)(c1ccccc1)C1CCCCC1 (centres undefined)", "NOT MET"),
    ("Oc1ccccc1-c1nc(NCc2ccco2)c2ccccc2n1", "MET"),
    ("Cc1nc2ccccc2cc1O", "NOT MET"),
    ("Cc1c(/C(O)=C2/C(=O)C(=O)N(CCCN3CCOCC3)C2c2ccncc2)cnn1-c1ccccc1 (centres undefined)", "MET"),
    ("CCOc1ccc(-n2c3nc4ccccc4nc3c3c(=O)n(Cc4ccco4)cnc32)cc1", "NOT MET"),
    ("COc1cccc(COc2nc3c(c(=O)n(C)c(=O)n3C)n2C)c1", "NOT MET"),
    ("Cc1nc2n[nH]c(N)c2c2c1COC(C)(C)C2", "NOT MET"),
    ("CC1(C)Cc2c(sc3nc4n(c(=N)c23)CCCCC4)CO1", "MET"),
    ("CCn1cc(C(=O)NCc2ccco2)c(=O)c2cc(F)c(N3CCN(C(=O)c4ccco4)CC3)cc21", "NOT MET"),
    ("CC1(C)CC(=O)C=C(NCc2ccncc2)C1", "NOT MET"),
    ("COc1cccc(-c2nn3c(-c4ccco4)nnc3s2)c1", "NOT MET"),
    ("COc1ccc(OC)c(C2=Nn3c(nnc3-c3ccco3)SC2)c1", "MET"),
    ("CC1=C(C(=O)Nc2ccccc2)C(c2ccncc2)C(C#N)=C(SCC(=O)NC(C)C)N1 (centres undefined)", "MET"),
    ("COC(=O)c1cc2c(=O)n3cccc(C)c3nc2n(Cc2cccnc2)c1=N", "NOT MET"),
    ("CCCCCCn1c(SCCN2CCOCC2)nc2c1c(=O)[nH]c(=O)n2C", "MET"),
    ("O=C(NCc1ccco1)c1ccc(=O)oc1", "NOT MET"),
    ("CCCNC(=O)NS(=O)(=O)c1ccc(Cl)cc1", "MET"),
    ("CCSC(SCC)[C@H](O)[C@@H](O)[C@H](O)[C@H](O)CO", "NOT MET"),
    ("COC(=O)CCC(=O)CN", "MET"),
    ("CNCCC=C1c2ccccc2CCc2ccccc21", "NOT MET"),
    ("COC(=O)c1ccc(CSc2ncnc3c2sc2nc(N4CCOCC4)c4c(c23)CCCC4)o1", "NOT MET"),
    ("O=C1CCc2nc3ccccc3c(=O)n2N1", "MET"),
    ("CCCc1nc(N2CCOCC2)c(C#N)c2c1CCCC2", "NOT MET"),
]

---

Catalogue of inhibition values
# Assay Method Text: inhibitors of TNFa-induced NFkB p65 translocation, primary screen, imaging, HUVEC, MLSMR starter and 10KST1 sets (AID 438);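 further: compound added about 3h40 before a 20 min TNFalpha stimulation; signal is the nuclear over cytoplasmic p65 intensity ratio per well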
# Condition Notes: HUVEC TNFa-induced p65 nuclear translocation; at 2 µM, stronger effect = higher value, 0% TNFa-plus-vehicle, 100% no-TNFa wells
Quantity: inhibition (%)

# Molecule, Value Units, Value Measured
measured = [
    ("O=C(CCCN1C(=O)c2ccccc2C1=O)N1CCC(c2ccccc2)C1 (stereo unspecified)", "%", -8.4),
    ("COc1cccc(C2/C(=C(/O)c3cnn(-c4ccccc4)c3C)C(=O)C(=O)N2CCN(C)C)c1OC (stereo unspecified)", "%", 6.3),
    ("CSc1nc(N)nc(SCC(=O)OC(C)C)c1C#N", "%", -11.8),
    ("COc1ccccc1N1CCN(CCCCOc2ccc(F)cc2)CC1", "%", -6.8),
    ("CCOC(=O)c1oc2cc(O)cc(C)c2c(=O)c1-c1cscn1", "%", -5.6),
    ("O=C(c1ccc(=O)oc1)N1CCOCC1", "%", -5.3),
]

---

# Target Entity: Alpha-2C adrenergic receptor (Homo sapiens) (UniProt P18825)
# Sequence (P18825 whole entry, looked up): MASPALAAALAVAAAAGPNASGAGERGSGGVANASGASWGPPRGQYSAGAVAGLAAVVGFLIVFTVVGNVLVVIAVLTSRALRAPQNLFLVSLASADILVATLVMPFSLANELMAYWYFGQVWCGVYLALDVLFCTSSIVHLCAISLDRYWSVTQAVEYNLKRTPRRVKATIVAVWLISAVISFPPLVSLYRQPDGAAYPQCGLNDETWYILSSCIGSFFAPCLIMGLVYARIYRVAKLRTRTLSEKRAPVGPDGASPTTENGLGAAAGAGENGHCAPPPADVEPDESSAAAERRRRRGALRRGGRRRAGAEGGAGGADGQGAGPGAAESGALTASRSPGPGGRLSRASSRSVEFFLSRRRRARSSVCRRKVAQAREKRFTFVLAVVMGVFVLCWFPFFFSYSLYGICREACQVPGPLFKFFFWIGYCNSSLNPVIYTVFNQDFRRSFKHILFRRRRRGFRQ
# Assay Method Text: modulators of alpha2C/GIRK thallium flux, primary screen, cell-based, HEK293 alpha2C/GIRK1/2 (AID 624);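 further: slope of fluorescence ratio to pre-addition baseline per second over 15 to 24 s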
# Condition Notes: thallium flux BTC fluorescence, at 10 µM, actives lie on both sides
// label = true if slope is not less than 0.005, otherwise false

# Molecule, Cat
measured = [
    ("COc1ccc2c(c1)nc(N)n2Cc1ccccc1", "false"),
    ("CCOc1cccc(-c2nn3c(-c4ccccn4)nnc3s2)c1", "true"),
    ("CCC1CCCCN1c1nc(-c2cccc(OC)c2O)nc2ccccc12 (centres undefined)", "true"),
    ("O=C(Cc1cscn1)c1ccc(O)cc1O", "false"),
    ("CC1(C)Cc2c(C#N)c(NCc3ccco3)nc(-c3ccco3)c2CO1", "false"),
    ("CCCC(=O)Nn1cnc2c(c1=O)C1(CCCC1)Cc1ccccc1-2", "false"),
    ("CC1(C)Cc2c(c(N3CCOCC3)nc3sc(C#N)c(N)c23)CS1", "true"),
    ("N=c1c2c(-c3ccccc3)c(-c3ccccc3)n(Cc3ccccc3)c2ncn1CCCn1ccnc1", "false"),
    ("CC1CN(c2oc(-c3ccccc3Cl)nc2C#N)CC(C)O1 (centres undefined)", "true"),
    ("COc1ccccc1NC(=O)C1=C(C)NC(SCC(=O)c2ccc(C)cc2)=C(C#N)C1c1ccco1 (centres undefined)", "true"),
    ("CCOC(=O)C1CSc2[nH]c(=O)sc2C1c1ccccc1 (centres undefined)", "true"),
    ("Cn1c(NCc2ccco2)nc2c1c(=O)n(Cc1ccc(Cl)c(Cl)c1)c(=O)n2C", "true"),
    ("CCN(CCCCOC(=O)c1ccc(OC)c(OC)c1)C(C)Cc1ccc(OC)cc1 (centres undefined)", "false"),
    ("COc1ccc(CCNC2CC(C)N(C)CC2C)cc1OC (centres undefined)", "false"),
    ("O/N=C1\\CCc2cc(Cl)ccc21", "false"),
    ("Cn1c2c(c(=O)n(C)c1=O)C(NC(=O)c1cccs1)(C(F)(F)F)C(=O)N2 (centres undefined)", "true"),
    ("CCOc1ccc(C2C(C(=O)c3ccc(C)o3)=C(O)C(=O)N2CCN2CCOCC2)cc1OC (centres undefined)", "false"),
    ("O=C(N(c1ccccc1)c1ccccc1)n1ccnc1", "false"),
    ("CCC12CN3CC(CC)(CN(C1)C3c1c(O)ccc3ccccc13)C2=O (centres undefined)", "false"),
    ("N/C(CCCN1CCCCC1)=N/O", "true"),
]
